Entry source: patent US20250262167A1

# Tested on: human monocyte-derived macrophages (hMDMs)
# Test Description: High throughput phenotypic screen of macrophage activation (cell shape, Z-score)
# Type: cell-based
# Settings: compounds regulating actin-cytoskeleton
Property Label: activation state induced in the screen

[[record]]
structure_smiles = "COC(=O)Nc1nc2ccc(Sc3ccccc3)cc2[nH]1"
property_label = "activation state induced in the screen"
result = "M1-activating"

[[record]]
structure_smiles = "C=C1[C@@H](C)[C@H]2[C@H](Cc3ccccc3)NC(=O)[C@]23OC(=O)/C=C/[C@H](O)CCC[C@@H](C)C/C=C/[C@H]3[C@@H]1O"
property_label = "activation state induced in the screen"
result = "M1-activating"

[[record]]
structure_smiles = "CC(=O)O[C@H]1C(=O)[C@@]2(C)[C@H]([C@H](OC(=O)c3ccccc3)[C@]3(O)C[C@H](OC(=O)[C@H](O)[C@@H](NC(=O)c4ccccc4)c4ccccc4)C(C)=C1C3(C)C)[C@]1(OC(C)=O)CO[C@@H]1C[C@@H]2O"
property_label = "activation state induced in the screen"
result = "M1-activating"


---

Each entry below carries its recorded EC.
# System: M0 macrophages (hMDMs)
# Test Description: Dosage response of cell shape change on M0 macrophages
# Type: cell-based, human
# Settings: M0 macrophages; EC = concentration inducing cell morphology changes to reach the M1 or M2 Z-score cutoff; Michaelis-Menten fit; 3 independent experiments; unit of the source corrected
Property Label: EC (µM)

[[record]]
structure_smiles = "O=C(Nc1nc2ccc(NC(=O)C34CC5CC(CC(C5)C3)C4)cc2s1)c1ccccc1"
assay_system = "M0 macrophages (hMDMs)"
quantitative_result = 2.25

[[record]]
structure_smiles = "CN1c2cc3c(cc2N=C(c2ccc(C(=O)O)cc2)c2ccccc21)C(C)(C)CCC3(C)C"
assay_system = "M0 macrophages (hMDMs)"
quantitative_result = 0.419

[[record]]
structure_smiles = "CC(C)(O)/C=C/C(=O)[C@](C)(O)[C@H]1[C@H](O)C[C@@]2(C)[C@@H]3CC=C4[C@@H](C=C(O)C(=O)C4(C)C)[C@]3(C)C(=O)C[C@]12C"
assay_system = "M0 macrophages (hMDMs)"
quantitative_result = 0.342

[[record]]
structure_smiles = "Nc1ccccc1NC(=O)c1ccc(CNC(=O)OCc2cccnc2)cc1"
assay_system = "M0 macrophages (hMDMs)"
quantitative_result = 1.05


---

# Tested on: human monocyte-derived macrophages (hMDMs)
# Test Description: High throughput phenotypic screen of macrophage activation (cell shape, Z-score)
# Type: cell-based
# Design: key: Z-score vs DMSO; negative = round cells, positive = elongated
# Settings: cell shape Z-score of hMDMs averaged over the compounds listed for the Wiki pathway; compounds at 20 µM for 24 hours; positive values = M2-like
Counter-ions that a name gives are not always drawn.
Property Label: Average Z-value

[[record]]
compound = "Cc1onc(-c2ccccc2)c1-c1ccc(S(N)(=O)=O)cc1 [valdecoxib]"
assay_system = "human monocyte-derived macrophages (hMDMs)"
result = 8.60

[[record]]
compound = "CC[C@@H]1/C=C/C=C/C[C@H](C)[C@H](O)[C@](C)(O)C(=O)[C@H](C)[C@@H](O)[C@H](C)C(=O)[C@H](C)[C@@H](O)[C@H](C)/C=C/C(=O)O[C@H]2[C@@H](C)[C@@H](CC1)O[C@@]1(CC[C@@H](C)[C@@H](C[C@H](C)O)O1)[C@@H]2C [oligomycin A]"
assay_system = "human monocyte-derived macrophages (hMDMs)"
result = 7.16

[[record]]
compound = "CCC[C@H](N[C@@H](C)C(=O)N1[C@H](C(=O)O)C[C@@H]2CCCC[C@@H]21)C(=O)OCC [PERINDOPRIL ERBUMINE]"
assay_system = "human monocyte-derived macrophages (hMDMs)"
result = 7.27

[[record]]
compound = "O=C1Cc2c([nH]c3ccc([N+](=O)[O-])cc23)-c2ccccc2N1 [Alsterpaullone]"
assay_system = "human monocyte-derived macrophages (hMDMs)"
result = 12.55

[[record]]
compound = "Cl.Cl.O=S(=O)(NCCNC/C=C/c1ccc(Br)cc1)c1cccc2cnccc12 [H 89 dihydrochloride]"
assay_system = "human monocyte-derived macrophages (hMDMs)"
result = 7.14

[[record]]
compound = "c1cc(-c2cnn3cc(-c4ccc(OCCN5CCCCC5)cc4)cnc23)ccn1 [Dorsomorphin dihydrochloride]"
assay_system = "human monocyte-derived macrophages (hMDMs)"
result = 11.09


---

# System: human monocyte-derived macrophages (hMDMs)
# Test Description: High throughput phenotypic screen of macrophage activation (cell shape, Z-score);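 also: phalloidin and DAPI stained hMDMs imaged by high-content microscopy, cell eccentricity compared with DMSO control by T-test, round morphology scored negative, elongated positive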
# Type: cell-based
# Set-up: key: Z-score vs DMSO; negative = round cells, positive = elongated
# Settings: cell shape Z-score of hMDMs averaged over the compounds listed for the Wiki pathway; compounds at 20 µM for 24 hours; positive values = M2-like
Counter-ions that a name gives are not always drawn.
Property Label: Average Z-value

[[record]]
compound = "O=C(O)c1nn(Cc2ccc(Cl)cc2Cl)c2ccccc12"
assay_system = "human monocyte-derived macrophages (hMDMs)"
quantitative_result = 6.13

[[record]]
compound = "CC1(C)C(=O)C=C[C@]2(C)[C@H]3CC[C@@]4(C)[C@H](c5ccoc5)OC(=O)[C@H]5O[C@]54[C@]3(C)C=C[C@@H]12 [7-DESACETOXY-6,7-DEHYDROGEDUNIN]"
assay_system = "human monocyte-derived macrophages (hMDMs)"
quantitative_result = 7.92

[[record]]
compound = "COc1cc(C(=O)N2CCC(N3CCN(C)CC3)CC2)ccc1Nc1ncc2c(n1)N(C)c1ccccc1C(=O)N2C"
assay_system = "human monocyte-derived macrophages (hMDMs)"
quantitative_result = 8.88

[[record]]
compound = "CN(C)CCC=C1c2ccccc2COc2ccccc21 [Doxepine HCl]"
assay_system = "human monocyte-derived macrophages (hMDMs)"
quantitative_result = 6.87

[[record]]
compound = "CC(C)C[C@H](NC(=O)CNC(=O)c1cc(Cl)ccc1Cl)B(O)O"
assay_system = "human monocyte-derived macrophages (hMDMs)"
quantitative_result = 7.13

[[record]]
compound = "CC1=C(/C=C/C(C)=C/C=C/C(C)=C/C(=O)O)C(C)(C)CCC1"
assay_system = "human monocyte-derived macrophages (hMDMs)"
quantitative_result = 6.86


---

Each entry below carries its recorded Max absolute Z-value.
# Test system: M0 macrophages (hMDMs)
# Test Description: Dosage response of cell shape change on M0 macrophages
# Type: cell-based, human
# Settings: M0 macrophages; Max Z-score from Michaelis-Menten equation; negative = round, positive = elongated
Property Label: Max absolute Z-value

[[record]]
molecule = "CC(C)(O)/C=C/C(=O)[C@](C)(O)[C@H]1[C@H](O)C[C@@]2(C)[C@@H]3CC=C4[C@@H](C=C(O)C(=O)C4(C)C)[C@]3(C)C(=O)C[C@]12C [Cucurbitacin I]"
property_label = "Max absolute Z-value"
result = "−4.808"

[[record]]
molecule = "O=C(Nc1nc2ccc(NC(=O)C34CC5CC(CC(C5)C3)C4)cc2s1)c1ccccc1 [NVP 231]"
property_label = "Max absolute Z-value"
result = "−22.37"

[[record]]
molecule = "CN1c2cc3c(cc2N=C(c2ccc(C(=O)O)cc2)c2ccccc21)C(C)(C)CCC3(C)C [LE135]"
property_label = "Max absolute Z-value"
result = "−8.912"

[[record]]
molecule = "Nc1ccccc1NC(=O)c1ccc(CNC(=O)OCc2cccnc2)cc1 [MS275]"
property_label = "Max absolute Z-value"
result = "−7.993"

